Target: HLA-A*01:01
Assay: IEDB peptide-MHC binding, purified MHC/direct/fluorescence; filed as Kd, often an IC50 or EC50 that approximates it; bounds were set here for any values at or beyond the usual limits of such assays
Details: source organism: Influenza A virus (A/Hong Kong/488/97(H5N1))
OBSERVATION TYPE: Kd (nM)
Use nM as the unit, but write only the number.

# Kd of NMDRAVKLY = 584

====

Biological target: HLA-A*02:01
Assay: IEDB peptide-MHC binding, purified MHC/competitive/fluorescence; bounds were set here for any values at or beyond the usual limits of such assays
Details: source organism: Vaccinia virus WR
OBSERVATION TYPE: pIC50
Please treat pIC50 as minus the base-10 logarithm of the molar concentration.

# value of pIC50, HLA-A*02:01, item FLVINRLGA = 6.10

====

Target: HLA-A*69:01
Test: IEDB peptide-MHC binding, purified MHC/direct/fluorescence; filed as Kd, often an IC50 or EC50 that approximates it; bounds were set here for any values at or beyond the usual limits of such assays
Conditions: source organism: Vibrio vulnificus
OBSERVATION TYPE: Kd (nM)
Use nM as the unit, but write only the number.

# Kd of RLSDPRFSQ = 121

====

Molecular target: HLA-A*01:01
Assay: IEDB peptide-MHC binding, purified MHC/competitive/fluorescence; filed as Kd, often an IC50 or EC50 that approximates it; bounds were set here for any values at or beyond the usual limits of such assays
Conditions: source organism: Shigella flexneri 5 str. 8401
pKd: −log10 of the molar value.
OBSERVATION TYPE: pKd

# value of pKd, HLA-A*01:01, item FGALFMWLL = ≤ 5.30

====

Target: HLA-B*58:01
Assay: IEDB peptide-MHC binding, purified MHC/competitive/fluorescence; bounds were set here for any values at or beyond the usual limits of such assays
Details: source organism: Ateles geoffroyi
OBSERVATION TYPE: IC50

# value of IC50, HLA-B*58:01, item LPADPASVL = ≥ 20 µM

====

Target: HLA-B*15:01
Experiment: IEDB peptide-MHC binding, purified MHC/direct/fluorescence; filed as Kd, often an IC50 or EC50 that approximates it; bounds were set here for any values at or beyond the usual limits of such assays
Conditions: source organism: Orthohantavirus andesense
OBSERVATION TYPE: pKd
Please treat pKd as minus the base-10 logarithm of the molar concentration.

# pKd of SCINGQCPY = 5.22

====

Target: HLA-A*30:02
Test: IEDB peptide-MHC binding, purified MHC/competitive/radioactivity; filed as Kd, often an IC50 or EC50 that approximates it; bounds were set here for any values at or beyond the usual limits of such assays
Details: source organism: Triticum aestivum
OBSERVATION TYPE: Kd (nM)
Use nM as the unit, but write only the number.

# Kd of QFLGQQQPF = 831

====

Biological target: HLA-A*02:03
Test: IEDB peptide-MHC binding, purified MHC/competitive/radioactivity; filed as Kd, often an IC50 or EC50 that approximates it; bounds were set here for any values at or beyond the usual limits of such assays
Settings: source organism: Dengue virus 1 Singapore/S275/1990
OBSERVATION TYPE: Kd (nM)
Use nM as the unit, but write only the number.

# value of Kd, HLA-A*02:03, item RLSAAIGKA = 70.7
